The reported numbers originate from patent US20170066831A1.

SYSTEM_UNDER_TEST: T1, human ST2L extracellular domain with C-terminal His6 tag (human, UniProt Q01638 19-328)
T1 construct: also called huST2L-ECD; ST2L-ECD
T1 sequence: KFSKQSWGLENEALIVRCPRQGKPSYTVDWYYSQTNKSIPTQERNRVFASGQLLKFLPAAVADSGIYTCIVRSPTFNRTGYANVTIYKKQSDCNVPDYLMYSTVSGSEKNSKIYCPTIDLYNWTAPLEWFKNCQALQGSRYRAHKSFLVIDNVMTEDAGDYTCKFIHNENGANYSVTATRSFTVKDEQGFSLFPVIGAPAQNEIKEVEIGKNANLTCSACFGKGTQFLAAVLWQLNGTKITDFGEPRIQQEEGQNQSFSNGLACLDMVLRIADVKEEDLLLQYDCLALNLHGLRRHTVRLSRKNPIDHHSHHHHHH
ASSAY: SPR, mAb captured, ST2L-ECD in solution
ATTRIBUTE_MEASURED: Kd (nM)
Give bare numbers, in nM.

binder="STLM220 (antibody, V domains shown, frameworks VH3-23 / Vk-L6) VH: EVQLLESGGGLVQPGGSLRLSCAASGFTFSFYDMFWVRQAPGKGLEWVSDIRGEGGGTAYADSVKGRFTISRDNSKNTLYLQMNSLRAEDTAVYYCARDPWSTEGSFFVLDYWGQGTLVTVSS VL: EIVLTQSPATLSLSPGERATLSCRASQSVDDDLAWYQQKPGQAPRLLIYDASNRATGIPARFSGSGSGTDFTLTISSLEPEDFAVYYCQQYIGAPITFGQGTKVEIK" observed_result=0.016
binder="STLM221 (antibody, V domains shown, frameworks VH3-23 / Vk-L6) VH: EVQLLESGGGLVQPGGSLRLSCAASGFTFSIYDMFWVRQAPGKGLEWVSYIRGEGGDTNYADSVKGRFTISRDNSKNTLYLQMNSLRAEDTAVYYCARDPWSTEGSFFVLDYWGQGTLVTVSS VL: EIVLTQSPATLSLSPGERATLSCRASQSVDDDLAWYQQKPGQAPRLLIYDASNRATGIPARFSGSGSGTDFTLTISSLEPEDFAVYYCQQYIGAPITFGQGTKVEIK" observed_result=0.035

// switching to the query binder
Asked: Endpoint output: Kd of STLM232 (antibody, V domains shown, VH STLH201 + VL STLL272) VH: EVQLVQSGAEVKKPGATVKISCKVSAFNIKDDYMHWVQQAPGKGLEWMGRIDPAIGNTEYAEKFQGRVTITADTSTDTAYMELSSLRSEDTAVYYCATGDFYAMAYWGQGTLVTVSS VL: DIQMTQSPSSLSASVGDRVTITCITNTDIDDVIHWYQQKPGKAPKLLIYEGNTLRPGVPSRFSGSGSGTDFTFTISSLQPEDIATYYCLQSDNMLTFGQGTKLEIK . Value?
Given back: 0.025
